The measurements presented in this section are drawn from ChEMBL document CHEMBL4350955.

Voltage-gated inwardly rectifying potassium channel KCNH2 (Homo sapiens, UniProt Q12809): reported pIC50 for various compounds.
Sequence (Q12809 whole entry): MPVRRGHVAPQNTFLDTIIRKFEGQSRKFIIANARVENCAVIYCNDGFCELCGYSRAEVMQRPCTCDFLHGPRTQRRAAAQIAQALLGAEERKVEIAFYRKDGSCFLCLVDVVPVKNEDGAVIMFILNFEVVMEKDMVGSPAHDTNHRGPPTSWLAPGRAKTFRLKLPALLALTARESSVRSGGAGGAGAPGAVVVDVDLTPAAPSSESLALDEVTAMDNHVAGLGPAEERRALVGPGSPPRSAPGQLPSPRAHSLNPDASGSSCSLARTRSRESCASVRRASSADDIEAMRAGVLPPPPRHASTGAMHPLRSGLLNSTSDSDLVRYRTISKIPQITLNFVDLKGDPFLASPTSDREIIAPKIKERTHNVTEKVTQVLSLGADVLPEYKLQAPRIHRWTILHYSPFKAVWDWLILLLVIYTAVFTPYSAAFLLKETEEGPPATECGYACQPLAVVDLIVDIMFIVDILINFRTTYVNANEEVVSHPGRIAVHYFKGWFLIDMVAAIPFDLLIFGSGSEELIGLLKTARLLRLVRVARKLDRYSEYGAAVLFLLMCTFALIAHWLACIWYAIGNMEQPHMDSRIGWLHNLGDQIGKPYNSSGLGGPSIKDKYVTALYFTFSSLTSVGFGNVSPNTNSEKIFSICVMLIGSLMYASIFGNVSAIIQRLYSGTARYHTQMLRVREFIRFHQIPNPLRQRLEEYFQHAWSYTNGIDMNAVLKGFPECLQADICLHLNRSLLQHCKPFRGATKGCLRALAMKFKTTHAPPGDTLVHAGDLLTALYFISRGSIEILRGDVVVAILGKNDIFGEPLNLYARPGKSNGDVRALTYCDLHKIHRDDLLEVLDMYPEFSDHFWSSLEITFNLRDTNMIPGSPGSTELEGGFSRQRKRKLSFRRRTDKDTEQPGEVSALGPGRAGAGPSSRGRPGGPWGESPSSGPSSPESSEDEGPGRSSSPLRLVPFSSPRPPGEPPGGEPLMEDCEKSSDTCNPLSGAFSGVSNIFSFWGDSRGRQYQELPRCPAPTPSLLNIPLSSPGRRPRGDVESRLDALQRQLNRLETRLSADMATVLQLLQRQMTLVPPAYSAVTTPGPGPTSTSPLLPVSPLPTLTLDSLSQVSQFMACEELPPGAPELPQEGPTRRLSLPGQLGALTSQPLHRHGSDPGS
pIC50: −log10 of the molar value.

compound: Cc1cc(-c2ccc(C(=O)[C@@H]3CCCC[C@H]3C(=O)Nc3cn(C)nc3C(N)=O)c(F)c2)[nH]n1
pIC50: < 4.50
//
compound: Cc1cc(-c2ccc(C(=O)[C@@H]3CCCC[C@H]3C(=O)Nc3cn(C)nc3C)cc2)n[nH]1
pIC50: < 4.00
//
compound: Cc1nn(C)cc1NC(=O)[C@@H]1CCCC[C@H]1C(=O)c1ccc(-c2cc[nH]n2)cc1 (racemic)
pIC50: < 4.90
//
compound: O=C(Nc1cnn2cccnc12)[C@@H]1CCCC[C@H]1C(=O)c1ccc(-c2cc[nH]n2)cc1
pIC50: < 4.50
//
compound: Cc1nn(C)cc1NC(=O)[C@@H]1CCCC[C@H]1C(=O)c1ccc(-c2cc[nH]n2)cc1F (racemic)
pIC50: < 4.90
//
compound: Cc1cc(-c2ccc(C(=O)[C@@H]3CCCC[C@H]3C(=O)Nc3cn(C)nc3C(N)=O)cc2)n[nH]1
pIC50: < 4.50
//
compound: Cc1cc(-c2ccc3c([C@@H]4CCCC[C@H]4C(=O)Nc4cn(C)nc4C(N)=O)noc3c2)n[nH]1
pIC50: < 4.50
//
compound: COc1cc(NC(=O)[C@@H]2CCCC[C@H]2C(=O)c2ccc(-c3cc[nH]n3)cc2)ncn1
pIC50: 4.90
